targetOrSystem: Nicotinamide N-methyltransferase (Homo sapiens, UniProt P40261)
Sequence (P40261 whole entry): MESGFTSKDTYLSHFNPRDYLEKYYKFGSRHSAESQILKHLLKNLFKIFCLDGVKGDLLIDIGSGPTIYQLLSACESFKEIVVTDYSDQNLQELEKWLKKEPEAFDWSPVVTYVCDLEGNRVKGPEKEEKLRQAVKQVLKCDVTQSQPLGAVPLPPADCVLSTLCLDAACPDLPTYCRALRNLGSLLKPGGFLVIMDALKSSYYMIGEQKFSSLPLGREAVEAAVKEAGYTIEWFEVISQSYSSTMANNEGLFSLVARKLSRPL
pIC50: −log10 of the molar value.
measuredProperty: pIC50

INSERT INTO results (smilestext, observedvalue) VALUES
  ('Nc1ncnc2c1ncn2[C@@H]1O[C@H](C[C@@H](N)CC[C@H](N)C(=O)O)[C@@H](O)[C@H]1O', 4.90),
  ('Nc1ncnc2c1ncn2[C@@H]1O[C@H](CSCC[C@H](N)C(=O)O)[C@@H](O)[C@H]1O', 4.45),
  ('COC(=O)c1cccc(CN(CCCC(N)=O)C[C@H]2O[C@@H](n3cnc4c(N)ncnc43)[C@H](O)[C@@H]2O)c1', '< 3.60'),
  ('CC(C)N(Cc1cccc(C(=O)O)c1)C[C@H]1O[C@@H](n2cnc3c(N)ncnc32)[C@H](O)[C@@H]1O', '< 3.60'),
  ('Nc1ncnc2c1ncn2[C@@H]1O[C@H](CN(CCC[C@H](N)C(=O)O)Cc2ccc3ccccc3c2)[C@@H](O)[C@H]1O', '< 3.60'),
  ('Nc1ncnc2c1ncn2[C@@H]1O[C@H](CN(CCCC(=O)O)Cc2ccc3ccccc3c2)[C@@H](O)[C@H]1O', '< 3.60'),
  ('NC(=O)c1cccc(CN(CCCC(=O)O)C[C@H]2O[C@@H](n3cnc4c(N)ncnc43)[C@H](O)[C@@H]2O)c1', '< 3.60');
